Assayed target: Hypoxia-inducible factor 1-alpha inhibitor (Homo sapiens, UniProt Q9NWT6)
Sequence (Q9NWT6 whole entry): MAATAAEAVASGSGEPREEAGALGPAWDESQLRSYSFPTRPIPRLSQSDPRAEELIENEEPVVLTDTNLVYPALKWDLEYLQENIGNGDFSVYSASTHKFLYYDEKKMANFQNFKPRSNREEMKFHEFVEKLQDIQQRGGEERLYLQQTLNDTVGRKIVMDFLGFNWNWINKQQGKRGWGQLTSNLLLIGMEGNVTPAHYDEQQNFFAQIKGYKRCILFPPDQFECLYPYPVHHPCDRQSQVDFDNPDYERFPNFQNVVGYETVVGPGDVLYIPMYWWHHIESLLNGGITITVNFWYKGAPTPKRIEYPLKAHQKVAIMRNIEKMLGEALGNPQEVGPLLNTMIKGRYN
Protocol notes: Inhibition of N-terminal His6-tagged full-length FIH (unknown origin) expressed in Escherichia coli Rosetta 2(DE3)pLysS using SMDESGLPQLTSYDCEVNAPIQGSRNLLQGEELLRALDQVN peptide/100 uM alpha-ketoglutarate as substrate/cofactor incubated for 45 mins by MALDI assay
Endpoint: IC50

Structure smiles	IC50
COc1cccc(CC(=O)Nc2ccc(O)c(-c3cc(C(=O)O)ccn3)c2)c1	> 500 µM
COCC(=O)Nc1ccc(O)c(-c2cc(C(=O)O)ccn2)c1	> 500 µM
Cc1cc(C(=O)Nc2ccc(O)c(-c3cc(C(=O)O)ccn3)c2)no1	473 µM
O=C(O)c1ccnc(-c2cc(NC(=O)c3ccc(O)cc3)ccc2O)c1	> 500 µM

// switching to the query molecule
[in] Tell me the measured IC50 of `CC(=O)Nc1ccc(O)c(-c2cc(C(=O)O)ccn2)c1` , please.
[out] > 500 µM

----------
Assayed target: Lysine-specific demethylase 4C (Homo sapiens)
Protocol notes: Competitive inhibition of N-terminal His6-tagged KDM4C (1 to 352 residues) (unknown origin) expressed in Escherichia coli Rosetta 2(DE3)pLysS using 250 uM ARK(Me3)STGGK peptide/50 uM alpha-ketoglutarate as substrate/cofactor by FDH coupling-based Lineweaver-Burk plot analysis
Endpoint: IC50 (µM)
I only need the number, in µM, no unit after it.

[in] Which IC50 value is on record for `COCC(=O)Nc1ccc(O)c(-c2cc(C(=O)O)ccn2)c1` ?
[out] 14.9

[in] Tell me the measured IC50 of `O=C(O)c1ccnc(-c2cc(NC(=O)c3ccc(O)cc3)ccc2O)c1` , please.
[out] 5.5

----------
Assayed target: Lysine-specific demethylase 4C (Homo sapiens, UniProt Q9H3R0)
Sequence (Q9H3R0 whole entry, the tested form may be a part): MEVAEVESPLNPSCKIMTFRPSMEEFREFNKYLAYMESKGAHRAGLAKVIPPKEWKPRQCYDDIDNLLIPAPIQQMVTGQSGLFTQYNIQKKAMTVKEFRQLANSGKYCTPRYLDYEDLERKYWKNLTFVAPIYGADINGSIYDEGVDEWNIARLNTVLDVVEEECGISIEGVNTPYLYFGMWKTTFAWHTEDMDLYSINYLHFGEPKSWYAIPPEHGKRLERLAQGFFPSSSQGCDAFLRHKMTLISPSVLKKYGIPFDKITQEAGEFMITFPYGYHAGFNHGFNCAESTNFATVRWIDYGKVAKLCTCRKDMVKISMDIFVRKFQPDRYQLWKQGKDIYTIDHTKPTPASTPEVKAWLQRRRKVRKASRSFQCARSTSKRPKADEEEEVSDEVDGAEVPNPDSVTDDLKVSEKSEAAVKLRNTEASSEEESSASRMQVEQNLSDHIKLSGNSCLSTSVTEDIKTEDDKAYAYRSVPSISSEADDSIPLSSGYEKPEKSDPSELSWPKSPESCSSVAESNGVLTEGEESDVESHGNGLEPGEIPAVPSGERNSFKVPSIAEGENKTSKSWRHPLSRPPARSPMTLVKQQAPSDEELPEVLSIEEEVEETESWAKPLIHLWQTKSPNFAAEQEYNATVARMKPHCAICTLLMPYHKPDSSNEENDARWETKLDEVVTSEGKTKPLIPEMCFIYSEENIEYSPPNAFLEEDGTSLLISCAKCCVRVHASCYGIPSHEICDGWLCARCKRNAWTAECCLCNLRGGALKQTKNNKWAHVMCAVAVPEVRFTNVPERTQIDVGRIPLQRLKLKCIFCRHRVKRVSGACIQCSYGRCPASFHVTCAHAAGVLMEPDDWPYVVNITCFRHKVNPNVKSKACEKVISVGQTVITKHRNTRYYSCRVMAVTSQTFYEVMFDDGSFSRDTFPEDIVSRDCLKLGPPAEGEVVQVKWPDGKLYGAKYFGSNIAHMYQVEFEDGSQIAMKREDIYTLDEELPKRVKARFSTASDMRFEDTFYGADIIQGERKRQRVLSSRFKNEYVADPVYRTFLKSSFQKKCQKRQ
Protocol notes: Inhibition of N-terminal His6-tagged KDM4C (1 to 352 residues) (unknown origin) expressed in Escherichia coli Rosetta 2(DE3)pLysS using biotinylated histone H3 (1 to 21 residues) lysine 9 trimethylated peptide/2 uM alpha-ketoglutarate as substrate/cofactor measured after 45 mins by TR-FRET assay
Study conditions: read-out: IC50
API: label(entry) gives Condition met if the entry's IC50 is strictly smaller than 200 µM; on equality or larger values it gives Condition not met.

[in] A record lists `CN1CCN(C(=O)c2ccn(CC(=O)O)n2)CC1` . Is its IC50 below 200 µM?
[out] Condition not met

[in] Consider `NC(=O)N[C@@H](Cc1c[nH]c2ccccc12)C(=O)O` . Does its IC50 lie strictly below 200 µM?
[out] Condition met

[in] Please determine if `C[C@@H](NC(=O)c1cc(Cl)ccn1)C(=O)O` is below 200 µM in terms of IC50.
[out] Condition not met

[in] In plain terms, does `O=C(Cc1ccccc1)Nc1ccc(O)c(-c2cc(C(=O)O)ccn2)c1` come in under 200 µM for IC50?
[out] Condition met

[in] Report whether reported IC50 is lower than 200 µM (strictly) for `NC(=O)N[C@H](Cc1c[nH]c2ccccc12)C(=O)O`
[out] Condition met

----------
Assayed target: Lysine-specific demethylase 3A (Homo sapiens, UniProt Q9Y4C1)
Sequence (Q9Y4C1 whole entry): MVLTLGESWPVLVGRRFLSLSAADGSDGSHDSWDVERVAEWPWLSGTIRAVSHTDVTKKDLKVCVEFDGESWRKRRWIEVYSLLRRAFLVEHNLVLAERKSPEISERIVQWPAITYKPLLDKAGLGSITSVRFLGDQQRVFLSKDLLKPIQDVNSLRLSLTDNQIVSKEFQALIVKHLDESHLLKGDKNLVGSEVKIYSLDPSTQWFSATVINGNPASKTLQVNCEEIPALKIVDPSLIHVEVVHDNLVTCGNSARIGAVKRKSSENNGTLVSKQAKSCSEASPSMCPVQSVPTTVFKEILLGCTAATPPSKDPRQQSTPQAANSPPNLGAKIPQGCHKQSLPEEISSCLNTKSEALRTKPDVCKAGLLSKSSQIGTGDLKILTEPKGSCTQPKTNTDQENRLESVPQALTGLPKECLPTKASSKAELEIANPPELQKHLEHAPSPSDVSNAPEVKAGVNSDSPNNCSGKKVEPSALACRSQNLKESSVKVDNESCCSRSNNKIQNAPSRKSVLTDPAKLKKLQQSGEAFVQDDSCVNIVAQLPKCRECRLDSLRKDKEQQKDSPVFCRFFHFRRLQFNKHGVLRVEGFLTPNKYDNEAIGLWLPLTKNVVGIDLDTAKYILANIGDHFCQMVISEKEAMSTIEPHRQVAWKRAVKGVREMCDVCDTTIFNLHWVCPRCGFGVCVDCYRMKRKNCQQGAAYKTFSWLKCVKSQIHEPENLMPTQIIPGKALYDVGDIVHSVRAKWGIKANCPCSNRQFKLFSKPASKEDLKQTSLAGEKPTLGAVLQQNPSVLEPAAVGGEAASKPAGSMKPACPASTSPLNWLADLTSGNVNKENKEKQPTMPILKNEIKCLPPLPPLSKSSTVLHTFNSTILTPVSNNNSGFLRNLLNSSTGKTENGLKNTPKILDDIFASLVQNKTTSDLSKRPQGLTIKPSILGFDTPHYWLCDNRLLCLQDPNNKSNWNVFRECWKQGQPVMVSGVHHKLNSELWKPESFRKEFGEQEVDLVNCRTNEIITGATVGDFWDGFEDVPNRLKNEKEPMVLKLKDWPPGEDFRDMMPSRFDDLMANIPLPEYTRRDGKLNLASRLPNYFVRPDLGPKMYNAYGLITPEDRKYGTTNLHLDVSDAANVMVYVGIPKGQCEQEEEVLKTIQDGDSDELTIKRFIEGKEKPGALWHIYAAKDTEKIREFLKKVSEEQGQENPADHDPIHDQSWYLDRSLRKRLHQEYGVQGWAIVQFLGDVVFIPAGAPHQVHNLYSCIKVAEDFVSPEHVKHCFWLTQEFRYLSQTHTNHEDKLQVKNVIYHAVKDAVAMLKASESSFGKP
The label 1 is reserved for IC50 strictly under 9 µM; -1 covers values equal to or above it.

Illustrative cases are given below, each with its answer.
Structure smiles	Assayed target	Class assignment
CC(=O)Nc1ccc(O)c(-c2cc(C(=O)O)ccn2)c1	Lysine-specific demethylase 3A (Homo sapiens, UniProt Q9Y4C1)	-1
O=C(O)c1ccnc(-c2cc(NC(=O)c3ccc(O)cc3)ccc2O)c1	Lysine-specific demethylase 3A (Homo sapiens, UniProt Q9Y4C1)	1
COCC(=O)Nc1ccc(O)c(-c2cc(C(=O)O)ccn2)c1	Lysine-specific demethylase 3A (Homo sapiens, UniProt Q9Y4C1)	-1

Please turn your attention to the following entry.
[in] # check: IC50 < 9 µM for `Cc1cc(C(=O)Nc2ccc(O)c(-c3cc(C(=O)O)ccn3)c2)no1`
[out] 1

----------
Listed here are molecules together with their documented pIC50.
Assayed target: Lysine-specific demethylase 4C (Homo sapiens)
Protocol notes: Inhibition of N-terminal His6-tagged KDM4C (1 to 352 residues) (unknown origin) expressed in Escherichia coli Rosetta 2(DE3)pLysS using biotinylated histone H3 (1 to 21 residues) lysine 9 trimethylated peptide/2 uM alpha-ketoglutarate as substrate/cofactor measured after 45 mins by TR-FRET assay
Study conditions: read-out: IC50
Note: pIC50 values are expressed as the negative base-10 logarithm of concentration in M.

Would you please look over these solved cases?
Structure smiles	Endpoint	Numeric readout
COCC(=O)Nc1ccc(O)c(C(=O)O)c1	pIC50	4.01
Cc1cc(C(=O)Nc2ccc(O)c(-c3cc(C(=O)O)ccn3)c2)no1	pIC50	7.19
COc1ccc(N)cc1-c1cc(C(=O)O)ccn1	pIC50	3.51

[in] pIC50 for `O=C(O)c1ccnc(-c2cc(NCc3ccc(Br)cc3)ccc2O)c1` ?
[out] 5.60

[in] Requested field: pIC50. Item: `CC(=O)c1ccccc1-c1cc(C(=O)O)ccn1`
[out] 3.29

[in] What does the record list as pIC50 for `COc1cccc(CC(=O)Nc2ccc(O)c(-c3cc(C(=O)O)ccn3)c2)c1` ?
[out] 6.85

----------
Assayed target: Lysine-specific demethylase 4C (Homo sapiens)
Protocol notes: Inhibition of N-terminal His6-tagged KDM4C (1 to 352 residues) (unknown origin) expressed in Escherichia coli Rosetta 2(DE3)pLysS using biotinylated histone H3 (1 to 21 residues) lysine 9 trimethylated peptide/2 uM alpha-ketoglutarate as substrate/cofactor measured after 45 mins by TR-FRET assay
Study conditions: read-out: IC50
Endpoint: pIC50
Please keep in mind that pIC50 is minus log10 of the molar concentration; only the number is needed.

Structure smiles	Numeric readout
O=C(O)CNC(=O)c1ccc2ccccc2n1	2.55
Cn1nccc1CNc1ccc(O)c(-c2cc(C(=O)O)ccn2)c1	6.11
CC(=O)N[C@@H](CCC(=O)O)C(=O)O	2.68
O=C(O)c1ccnc(-c2cc(NC(=O)c3ccno3)ccc2O)c1	5.99
O=C(O)c1cc(NCc2cccc3c2OCO3)ccc1O	4.82

[in] Quick check: pIC50 of `COCC(=O)Nc1ccc(O)c(-c2cc(C(=O)O)ccn2)c1` ?
[out] 6.85

[in] Returns the measured pIC50 for the input molecule. Input: `CCCNC(=O)NC(C)(C)C(=O)O`
[out] 3.90

[in] Value lookup for pIC50; key = `O=C(O)c1ccnc(-c2cc(NC(=O)c3ccc(O)cc3)ccc2O)c1`
[out] 7.19

----------
# pIC50 measurements, system: Lysine-specific demethylase 4D (Homo sapiens, UniProt Q6B0I6)
# Sequence (Q6B0I6 whole entry): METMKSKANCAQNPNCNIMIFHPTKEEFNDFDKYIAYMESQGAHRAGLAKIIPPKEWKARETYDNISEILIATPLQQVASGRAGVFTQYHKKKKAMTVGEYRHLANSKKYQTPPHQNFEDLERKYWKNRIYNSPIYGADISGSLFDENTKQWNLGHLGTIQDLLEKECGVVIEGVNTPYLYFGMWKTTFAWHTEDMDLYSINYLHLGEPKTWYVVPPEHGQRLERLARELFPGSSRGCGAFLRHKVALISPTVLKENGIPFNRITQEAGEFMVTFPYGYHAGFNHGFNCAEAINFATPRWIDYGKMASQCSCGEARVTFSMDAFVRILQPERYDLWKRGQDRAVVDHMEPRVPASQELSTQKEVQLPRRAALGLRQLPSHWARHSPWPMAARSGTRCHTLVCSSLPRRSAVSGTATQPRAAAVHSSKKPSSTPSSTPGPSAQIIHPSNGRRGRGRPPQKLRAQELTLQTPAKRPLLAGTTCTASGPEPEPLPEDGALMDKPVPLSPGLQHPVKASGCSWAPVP
Scale note: pIC50 = -log10(concentration in M).

For orientation, consider the following solved cases.
Structure smiles	Assayed target	Numeric readout
COCC(=O)Nc1ccc(O)c(-c2cc(C(=O)O)ccn2)c1	Lysine-specific demethylase 4D (Homo sapiens, UniProt Q6B0I6)	5.38
Cc1cc(C(=O)Nc2ccc(O)c(-c3cc(C(=O)O)ccn3)c2)no1	Lysine-specific demethylase 4D (Homo sapiens, UniProt Q6B0I6)	5.04
O=C(O)c1ccnc(-c2cc(NC(=O)c3ccc(O)cc3)ccc2O)c1	Lysine-specific demethylase 4D (Homo sapiens, UniProt Q6B0I6)	4.89

[in] Checklist item: pIC50 tested on Lysine-specific demethylase 4D (Homo sapiens, UniProt Q6B0I6), entry `CC(=O)Nc1ccc(O)c(-c2cc(C(=O)O)ccn2)c1` , value?
[out] 4.85

[in] Find the measured pIC50: item `COc1cccc(CC(=O)Nc2ccc(O)c(-c3cc(C(=O)O)ccn3)c2)c1` , target or system Lysine-specific demethylase 4D (Homo sapiens, UniProt Q6B0I6).
[out] 4.96

----------
Assayed target: Lysine-specific demethylase 4C (Homo sapiens, UniProt Q9H3R0)
Protocol notes: Inhibition of N-terminal His6-tagged KDM4C (1 to 352 residues) (unknown origin) expressed in Escherichia coli Rosetta 2(DE3)pLysS using biotinylated peptide/ 2 uM alpha-ketoglutarate as substrate/cofactor preincubated for 15 mins followed by substrate addition measured after 15 mins by alphascreen assay
Endpoint: pIC50
Please note pIC50 is a logarithmic value: minus log10 of concentration in mol/L. Answer with that number alone.

Some molecules with known pIC50 results, for comparison:
Structure smiles	pIC50
COc1cccc(CC(=O)Nc2ccc(O)c(-c3cc(C(=O)O)ccn3)c2)c1	5.00
Cc1cc(C(=O)Nc2ccc(O)c(-c3cc(C(=O)O)ccn3)c2)no1	5.26
O=C(O)c1ccnc(-c2cc(NC(=O)c3ccc(O)cc3)ccc2O)c1	4.92
COCC(=O)Nc1ccc(O)c(-c2cc(C(=O)O)ccn2)c1	5.42

[in] // pIC50 lookup, key: `CC(=O)Nc1ccc(O)c(-c2cc(C(=O)O)ccn2)c1`
[out] 4.82

----------
Assayed target: Lysine-specific demethylase 5B (Homo sapiens)
Sequence (Q9UGL1 whole entry): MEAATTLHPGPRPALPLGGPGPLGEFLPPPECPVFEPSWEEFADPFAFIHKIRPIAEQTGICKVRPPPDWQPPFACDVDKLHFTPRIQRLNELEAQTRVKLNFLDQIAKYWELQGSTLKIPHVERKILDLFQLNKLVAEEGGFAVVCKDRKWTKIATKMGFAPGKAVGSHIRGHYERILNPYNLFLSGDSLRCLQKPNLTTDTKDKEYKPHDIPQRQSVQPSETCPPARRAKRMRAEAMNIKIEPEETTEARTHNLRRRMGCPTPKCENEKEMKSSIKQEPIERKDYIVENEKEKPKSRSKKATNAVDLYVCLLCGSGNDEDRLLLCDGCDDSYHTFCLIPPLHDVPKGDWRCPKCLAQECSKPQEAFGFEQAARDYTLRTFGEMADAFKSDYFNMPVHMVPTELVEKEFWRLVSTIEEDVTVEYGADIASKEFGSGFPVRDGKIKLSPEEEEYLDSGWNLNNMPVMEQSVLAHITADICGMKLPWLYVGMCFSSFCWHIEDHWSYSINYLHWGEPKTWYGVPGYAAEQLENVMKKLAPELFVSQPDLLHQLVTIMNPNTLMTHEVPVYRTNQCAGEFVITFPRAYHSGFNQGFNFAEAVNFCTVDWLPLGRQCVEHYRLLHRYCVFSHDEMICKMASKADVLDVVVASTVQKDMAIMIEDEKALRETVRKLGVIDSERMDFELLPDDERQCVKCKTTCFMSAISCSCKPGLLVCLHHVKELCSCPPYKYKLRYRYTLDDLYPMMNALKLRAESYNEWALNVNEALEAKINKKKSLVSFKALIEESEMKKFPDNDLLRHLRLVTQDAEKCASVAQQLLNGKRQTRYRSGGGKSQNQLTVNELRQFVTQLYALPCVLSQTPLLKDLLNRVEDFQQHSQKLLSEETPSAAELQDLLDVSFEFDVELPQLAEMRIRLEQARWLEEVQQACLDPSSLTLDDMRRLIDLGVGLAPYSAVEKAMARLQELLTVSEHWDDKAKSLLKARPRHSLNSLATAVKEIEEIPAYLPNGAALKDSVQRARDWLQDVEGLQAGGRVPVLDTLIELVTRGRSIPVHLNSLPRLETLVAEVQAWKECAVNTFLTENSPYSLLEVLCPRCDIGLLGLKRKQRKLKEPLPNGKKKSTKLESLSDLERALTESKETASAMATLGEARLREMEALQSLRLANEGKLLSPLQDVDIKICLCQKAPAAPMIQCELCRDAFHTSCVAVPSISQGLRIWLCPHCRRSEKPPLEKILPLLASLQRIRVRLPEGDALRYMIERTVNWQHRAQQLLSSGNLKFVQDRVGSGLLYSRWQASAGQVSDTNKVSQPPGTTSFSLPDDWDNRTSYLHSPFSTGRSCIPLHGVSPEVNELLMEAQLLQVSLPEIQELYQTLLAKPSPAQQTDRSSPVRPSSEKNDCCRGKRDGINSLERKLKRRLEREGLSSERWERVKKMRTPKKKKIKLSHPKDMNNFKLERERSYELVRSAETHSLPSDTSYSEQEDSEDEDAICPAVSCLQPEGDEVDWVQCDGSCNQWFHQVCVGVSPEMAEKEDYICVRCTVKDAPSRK
pIC50: −log10 of the molar value.
Please use 1.0 whenever pIC50 is not below 5, and 0.0 whenever it is.

Worked examples follow.
Structure smiles	Assayed target	Class assignment
COc1cccc(CC(=O)Nc2ccc(O)c(-c3cc(C(=O)O)ccn3)c2)c1	Lysine-specific demethylase 5B (Homo sapiens)	0.0
CC(=O)Nc1ccc(O)c(-c2cc(C(=O)O)ccn2)c1	Lysine-specific demethylase 5B (Homo sapiens)	0.0
Cc1cc(C(=O)Nc2ccc(O)c(-c3cc(C(=O)O)ccn3)c2)no1	Lysine-specific demethylase 5B (Homo sapiens)	1.0

Would you kindly look at the next entry?
[in] Could you please find out whether `O=C(O)c1ccnc(-c2cc(NC(=O)c3ccc(O)cc3)ccc2O)c1` has pIC50 that meets 5 or exceeds it?
[out] 0.0
